tested on: SK-MEL-2 melanoma; assay: NCI-60 one-dose screen, 48 h (100 = growth as untreated, 0 = no growth, -100 = all killed); details: 10 µM unless noted
Compounds without any hit were thinned out: in the full panel of roughly 83,000, 20% have a hit.
growth values, listed per item
recorded.endpoint: growth (%)

In [3]: df
Out[3]:
                                   compound  value
0  Cn1cc(-c2cc3ncnc(Nc4ccc(NC(=O)Nc5cc(C(C)(C)C)on5)cc4)c3s2)cn1  -9.06
1  COc1ccc2c(c1)c(/C=N/Nc1ccnc3cc(Cl)ccc13)cn2C  -80.8
2  CCCCCCNC(=O)Oc1ccc(/C(=C(/C)c2ccc(Cl)cc2)c2ccc(OCCN3CCCCCC3)cc2)cc1    108
3  CC(C)NC(=O)c1cc(-c2ccc(NC(=O)Nc3ccc(F)c(C(F)(F)F)c3)cc2)nc2cccnc12    107
4  O=C(/C=C/c1cccc(C(F)(F)F)c1)Nc1cccc(C(F)(F)F)c1   76.8
5  CCN(CC)CCOc1ccc(C(=C(C)Cc2ccc(OC)cc2)c2ccc(OCCN(CC)CC)cc2)cc1    116
6  O=C(CCCCCCNC(=O)C(O)(O)C(F)(F)F)Nc1ccc(Cl)cc1  -13.7
7  CCCC/C(=C\c1ccc(O)c(O)c1)C(=O)NC(Cc1ccccc1)C(=O)C(=O)NCCc1ccc(OC)cc1 (centres undefined)   98.8
8  CCCCN1C(=O)/C(=c2\sc3n(c2=O)C2C(NN=3)N(CC)C(=O)N2CC)c2cccc(C)c21 (centres undefined)   97.6
